Assay: Resorption of octreotide after injection of a solution into the jejunum of anaesthetised rats; plasma concentration by radio-immunoassay
Assay type: in vivo, Wistar rats
Conditions: Wistar, rat, 100 microg.; octreotide in plasma; area under the curve over 2 hours; 0.5 ml of NaCl (0.9 % W/V) solution injected into the jejunum; blood samples at 20 minutes, 1 and 2 hours; read-out: AUCo² median
parameter: AUC(0-t) (ng·h/mL)

1) C[C@@H](O)[C@@H]1NC(=O)[C@H](CCCCN)NC(=O)[C@@H](Cc2c[nH]c3ccccc23)NC(=O)[C@H](Cc2ccccc2)NC(=O)[C@@H](NC(=O)[C@H](N)Cc2ccccc2)CSSC[C@@H](C(=O)N[C@H](CO)[C@@H](C)O)NC1=O [100 microg. of octreotide (reference), Octreotide]; 2.06
